# target: T1, monkey C5-mmh (monkey, UniProt P01031 19-1676 (human entry), limits assumed)
# T1 construct: Expressed with a C-terminal myc-myc-hexahistidine tag
# T1 chain: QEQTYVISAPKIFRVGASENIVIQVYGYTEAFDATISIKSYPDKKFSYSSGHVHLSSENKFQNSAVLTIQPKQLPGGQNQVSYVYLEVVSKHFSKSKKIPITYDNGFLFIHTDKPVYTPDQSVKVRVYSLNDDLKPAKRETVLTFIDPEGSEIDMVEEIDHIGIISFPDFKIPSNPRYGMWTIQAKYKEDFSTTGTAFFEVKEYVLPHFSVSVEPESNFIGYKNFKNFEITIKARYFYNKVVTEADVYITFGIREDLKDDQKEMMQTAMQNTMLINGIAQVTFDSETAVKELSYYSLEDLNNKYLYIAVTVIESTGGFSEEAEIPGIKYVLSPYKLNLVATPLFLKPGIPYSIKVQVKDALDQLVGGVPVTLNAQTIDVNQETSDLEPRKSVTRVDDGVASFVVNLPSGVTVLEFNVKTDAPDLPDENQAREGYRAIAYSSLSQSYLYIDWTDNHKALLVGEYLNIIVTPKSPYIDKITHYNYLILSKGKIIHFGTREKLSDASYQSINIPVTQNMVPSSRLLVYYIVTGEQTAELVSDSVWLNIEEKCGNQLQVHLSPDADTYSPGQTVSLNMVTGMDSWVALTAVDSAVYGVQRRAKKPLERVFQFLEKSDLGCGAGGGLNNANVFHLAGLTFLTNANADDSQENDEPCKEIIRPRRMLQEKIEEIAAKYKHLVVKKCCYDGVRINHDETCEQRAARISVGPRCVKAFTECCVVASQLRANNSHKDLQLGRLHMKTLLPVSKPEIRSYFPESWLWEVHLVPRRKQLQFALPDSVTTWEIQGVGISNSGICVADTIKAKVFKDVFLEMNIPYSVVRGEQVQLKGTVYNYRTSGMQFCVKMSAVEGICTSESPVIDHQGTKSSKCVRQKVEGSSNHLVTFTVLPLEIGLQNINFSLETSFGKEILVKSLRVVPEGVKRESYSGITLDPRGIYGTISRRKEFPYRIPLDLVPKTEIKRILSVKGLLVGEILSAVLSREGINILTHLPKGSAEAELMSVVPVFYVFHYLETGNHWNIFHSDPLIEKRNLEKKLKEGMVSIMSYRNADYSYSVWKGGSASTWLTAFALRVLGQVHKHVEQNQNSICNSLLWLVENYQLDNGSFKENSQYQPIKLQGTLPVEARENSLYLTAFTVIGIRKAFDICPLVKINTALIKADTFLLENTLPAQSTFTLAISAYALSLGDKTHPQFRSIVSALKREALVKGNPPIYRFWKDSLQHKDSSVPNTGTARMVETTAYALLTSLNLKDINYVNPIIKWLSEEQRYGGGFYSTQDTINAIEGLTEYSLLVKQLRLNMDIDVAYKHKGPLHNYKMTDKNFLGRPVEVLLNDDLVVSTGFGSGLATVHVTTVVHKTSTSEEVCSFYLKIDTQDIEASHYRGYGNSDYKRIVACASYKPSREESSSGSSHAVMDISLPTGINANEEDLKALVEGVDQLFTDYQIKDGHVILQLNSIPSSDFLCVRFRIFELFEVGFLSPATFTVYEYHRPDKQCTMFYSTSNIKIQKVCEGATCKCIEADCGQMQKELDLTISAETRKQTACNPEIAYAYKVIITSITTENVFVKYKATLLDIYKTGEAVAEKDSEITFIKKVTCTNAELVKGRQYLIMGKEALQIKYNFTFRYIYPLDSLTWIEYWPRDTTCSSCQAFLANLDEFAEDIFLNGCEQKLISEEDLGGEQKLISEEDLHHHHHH
# assay_name: SPR, mAb captured by anti-hFc, 25C
# Method: Equilibrium dissociation constants (KD values) for C5 binding to purified anti-C5 antibodies were determined using a real-time surface plasmon resonance biosensor assay on a Biacore T200 instrument. […] Human C5 was obtained from a commercial source (EMD). […] Association of all the C5 reagents to each of the captured monoclonal antibodies was monitored for 3 minutes and their dissociation in HBST running buffer was monitored for 8 minutes. […]
Each entry below lists one item and its recorded t1/2 value.
A number alone suffices; assume min.

H4H12161P (antibody, human IgG4, V domains shown) VH: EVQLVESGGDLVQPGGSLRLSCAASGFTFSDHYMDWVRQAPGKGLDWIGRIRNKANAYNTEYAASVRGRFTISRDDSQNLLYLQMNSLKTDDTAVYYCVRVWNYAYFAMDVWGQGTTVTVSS VL: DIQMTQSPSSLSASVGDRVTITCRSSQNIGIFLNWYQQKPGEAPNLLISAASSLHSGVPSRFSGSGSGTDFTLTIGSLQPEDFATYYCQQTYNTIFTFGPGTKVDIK :: 465
H4H12169P (antibody, human IgG4, V domains shown) VH: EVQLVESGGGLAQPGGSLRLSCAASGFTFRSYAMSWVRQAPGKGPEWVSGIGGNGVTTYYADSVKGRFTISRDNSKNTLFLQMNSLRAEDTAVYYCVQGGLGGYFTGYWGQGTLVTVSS VL: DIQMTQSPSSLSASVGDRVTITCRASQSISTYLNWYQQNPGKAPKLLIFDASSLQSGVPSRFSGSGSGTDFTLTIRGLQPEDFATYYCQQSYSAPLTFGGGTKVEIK :: 3
H4H12171P (antibody, human IgG4, V domains shown) VH: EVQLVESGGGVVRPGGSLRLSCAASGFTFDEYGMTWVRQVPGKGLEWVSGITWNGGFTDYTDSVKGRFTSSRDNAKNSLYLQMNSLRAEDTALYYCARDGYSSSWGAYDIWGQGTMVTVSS VL: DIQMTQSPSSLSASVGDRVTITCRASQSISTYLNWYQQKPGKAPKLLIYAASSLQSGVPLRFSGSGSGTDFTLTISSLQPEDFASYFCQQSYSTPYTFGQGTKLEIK :: 51
H4H12166P5 (antibody, human IgG4, V domains shown, human IgG4 Fc with S108P hinge mutation) VH: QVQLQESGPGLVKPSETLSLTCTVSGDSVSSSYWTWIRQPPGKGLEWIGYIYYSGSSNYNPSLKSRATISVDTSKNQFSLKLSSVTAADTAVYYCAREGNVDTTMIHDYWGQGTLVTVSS VL: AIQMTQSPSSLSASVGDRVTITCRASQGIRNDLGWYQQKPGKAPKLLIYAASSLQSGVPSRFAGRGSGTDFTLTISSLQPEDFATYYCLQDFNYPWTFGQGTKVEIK :: 3
H4H12164P (antibody, human IgG4, V domains shown) VH: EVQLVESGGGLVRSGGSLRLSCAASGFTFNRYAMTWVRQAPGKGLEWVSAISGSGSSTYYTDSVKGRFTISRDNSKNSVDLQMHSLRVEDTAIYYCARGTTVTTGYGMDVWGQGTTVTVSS VL: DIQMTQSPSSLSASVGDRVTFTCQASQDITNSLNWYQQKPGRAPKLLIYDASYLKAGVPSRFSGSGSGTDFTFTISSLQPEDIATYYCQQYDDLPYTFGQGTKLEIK :: 8

Query block: Report t1/2 for H4H11683N (antibody, human IgG4, V domains shown, also called H2M11683N) VH: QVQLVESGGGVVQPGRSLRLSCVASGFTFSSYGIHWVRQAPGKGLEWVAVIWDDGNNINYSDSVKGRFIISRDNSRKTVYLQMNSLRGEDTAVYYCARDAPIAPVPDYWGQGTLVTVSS VL: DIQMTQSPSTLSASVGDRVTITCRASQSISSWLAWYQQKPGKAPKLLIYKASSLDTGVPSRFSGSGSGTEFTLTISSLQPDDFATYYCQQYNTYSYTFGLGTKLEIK
Result block: 47

Query block: Report t1/2 for H4H12166P2 (antibody, human IgG4, V domains shown, human IgG4 Fc with S108P hinge mutation) VH: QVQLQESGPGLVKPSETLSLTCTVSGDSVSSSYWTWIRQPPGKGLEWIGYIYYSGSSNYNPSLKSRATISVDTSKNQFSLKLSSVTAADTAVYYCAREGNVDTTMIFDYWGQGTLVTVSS VL: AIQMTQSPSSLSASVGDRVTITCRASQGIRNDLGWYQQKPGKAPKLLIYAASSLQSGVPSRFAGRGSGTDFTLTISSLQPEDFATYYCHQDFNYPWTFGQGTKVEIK
Result block: 4
